Origin of values: ChEMBL document CHEMBL3585273

Organism: Sus scrofa
Assay: Inhibition of pig kidney outer medulla Na+,K+-ATPase at 50 uM relative to control
Consider the following compounds and their measured inhibition readings.
resultType: inhibition

C=C/C(C)=C/C[C@]1(C)[C@H](C)[C@@H](O)[C@H](O)[C@@]23C(=C[C@H](OC)C[C@@H]12)[C@@H](O)O[C@H]3O	6.55%
C=CC(=C)CC[C@]1(C)[C@H](C)C[C@H](OC(=O)CC(O)CCCCCCCCC)[C@@]23C(=C[C@H](O)C[C@@H]12)[C@@H](OC(C)=O)O[C@H]3OC(C)=O (some centres undefined)	26.3%
C=C/C(C)=C/C[C@]1(C)[C@H](C)C[C@H](O)[C@@]23C(=C[C@H](OC(=O)c4ccc(O)cc4)C[C@@H]12)[C@@H](OC(C)=O)O[C@H]3OC(C)=O	23.8%
C=C/C(C)=C/C[C@]1(C)[C@H](C)[C@@H](OC(=O)CCC)[C@H](O)[C@@]23C(=C[C@H](OC)C[C@@H]12)[C@@H](OC(=O)CCC)O[C@H]3OC(C)=O	4.41%

====

Experiment: Inhibition of Wistar rat stomach H+,K+-ATPase after 1 hr
pIC50: −log10 of the molar value.
resultType: pIC50

IVERMECTIN	5.12

====

Molecular target: Sarcoplasmic/endoplasmic reticulum calcium ATPase 1 (Oryctolagus cuniculus, UniProt P04191)
Sequence (P04191 whole entry): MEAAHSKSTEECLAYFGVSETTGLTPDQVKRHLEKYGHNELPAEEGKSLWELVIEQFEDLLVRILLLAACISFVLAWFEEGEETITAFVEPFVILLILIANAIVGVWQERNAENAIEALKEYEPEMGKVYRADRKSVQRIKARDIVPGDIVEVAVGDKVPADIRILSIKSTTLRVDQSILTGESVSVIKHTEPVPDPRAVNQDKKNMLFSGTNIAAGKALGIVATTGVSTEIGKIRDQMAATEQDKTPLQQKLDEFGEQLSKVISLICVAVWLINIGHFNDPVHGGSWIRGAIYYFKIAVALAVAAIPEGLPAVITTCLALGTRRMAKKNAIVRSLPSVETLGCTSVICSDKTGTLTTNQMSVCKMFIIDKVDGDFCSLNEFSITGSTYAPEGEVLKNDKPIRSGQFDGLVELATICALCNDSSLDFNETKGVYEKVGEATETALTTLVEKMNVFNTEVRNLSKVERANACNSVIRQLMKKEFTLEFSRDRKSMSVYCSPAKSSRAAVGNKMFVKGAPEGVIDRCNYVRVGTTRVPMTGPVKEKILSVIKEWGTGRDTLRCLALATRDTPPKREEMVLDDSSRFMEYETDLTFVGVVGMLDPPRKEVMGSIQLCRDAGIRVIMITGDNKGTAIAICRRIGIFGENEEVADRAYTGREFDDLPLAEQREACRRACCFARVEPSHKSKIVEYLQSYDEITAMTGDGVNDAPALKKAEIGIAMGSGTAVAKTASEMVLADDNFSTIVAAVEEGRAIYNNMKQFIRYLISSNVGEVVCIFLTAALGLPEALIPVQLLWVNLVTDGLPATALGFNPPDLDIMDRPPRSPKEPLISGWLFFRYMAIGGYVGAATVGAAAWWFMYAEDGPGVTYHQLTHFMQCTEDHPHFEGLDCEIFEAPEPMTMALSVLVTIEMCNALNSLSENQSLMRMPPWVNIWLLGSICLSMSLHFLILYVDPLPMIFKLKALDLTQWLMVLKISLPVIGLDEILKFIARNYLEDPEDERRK
Assay: Binding affinity to rabbit hind leg muscle SERCA1a by pyruvate kinase and lactate dehydrogenase coupled assay
pKd: −log10 of the molar value.
resultType: pKd

C[C@H]1O[C@@H](O[C@H]2CC[C@@]3(C)[C@@H](CC[C@]4(C)[C@@H]3C=C[C@]35OC[C@@]6(CCC(C)(C)C[C@H]63)[C@H](O)C[C@]54C)[C@]2(C)CO)[C@H](O)[C@@H](O[C@@H]2O[C@H](CO)[C@@H](O)[C@H](O)[C@H]2O)[C@@H]1O	4.30
C[C@H](C[C@H](O)[C@H]1OC1(C)C)C1=C2C[C@H](O)[C@H]3[C@@]4(C)CCC(=O)C(C)(C)[C@@H]4CC[C@]3(C)[C@@]2(C)CC1 [ALISOL B]	4.57

====

Biological target: Sarcoplasmic/endoplasmic reticulum calcium ATPase 1 (Oryctolagus cuniculus, UniProt P04191)
Experiment: Binding affinity to rabbit skeletal muscle SERCA1a preincubated for 5 mins followed by Mg-ATP addition measured over 6 mins by spectrophotometric analysis
resultType: Kd

CC(=O)O[C@H]1O[C@@H](OC(C)=O)[C@]23C1=C[C@H](O)C[C@H]2[C@](C)(CCC1=CCOOC1)[C@H](C)C[C@@H]3OC(=O)/C=C/c1ccccc1	22.3 µM
C=C/C(C)=C/C[C@]1(C)[C@H](C)[C@@H](O)[C@H](O)[C@@]23C(=C[C@H](OC)C[C@@H]12)[C@@H](O)O[C@H]3O	> 100 µM
C=CC(=C)CC[C@]1(C)[C@H](C)C[C@H](O)[C@@]23C(=C[C@@H](OC(=O)/C=C/c4ccccc4)C[C@@H]12)[C@@H](OC(C)=O)O[C@H]3OC(C)=O	32.1 µM
C=CC(=C)CC[C@]1(C)[C@H](C)C[C@H](OC(=O)/C=C/c2ccccc2)[C@@]23C(=C[C@H](O)C[C@@H]12)[C@@H](OC(C)=O)O[C@H]3OC(C)=O	48.1 µM
C=C/C(C)=C/C[C@]1(C)[C@H](C)CC[C@@]23C(=CC(=O)C[C@@H]12)[C@@H](OC(C)=O)O[C@H]3OC(C)=O	96.5 µM
C=C/C(C)=C/C[C@]1(C)[C@H](C)[C@@H](OC(=O)CCC)[C@H](O)[C@@]23C(=C[C@H](OC)C[C@@H]12)[C@@H](OC(=O)CCC)O[C@H]3OC(C)=O	10.1 µM
